Tgt: NKp30 on human NK cells (human) (UniProt O14931)
Sequence (O14931 19-201): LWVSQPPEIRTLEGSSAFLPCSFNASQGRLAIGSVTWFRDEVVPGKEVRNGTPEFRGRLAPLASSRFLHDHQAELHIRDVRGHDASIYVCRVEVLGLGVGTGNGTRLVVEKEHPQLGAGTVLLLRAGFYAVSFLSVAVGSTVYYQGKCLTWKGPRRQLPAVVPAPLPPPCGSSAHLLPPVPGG
Method Description: cell-based or functional assay
Quantity: EC50 improvement compared to ΔB7-H6 wt (fold)
Numeric answer only, unit fold assumed.

// below: answered binders
[[record]]
binder = "ΔB7-H6_S3#1-SEED-PGLALA (bispecific antibody, part only; not given: SEED Fc chains and hu225 EGFR Fab, part only) chain, part: DLKVEMMAGGTQITPLNDNVTIFCNIFYSQPLNITTMGITWFWKSLTFDKEVKVFEFWGDHQEAFRPGAIVSPWRLKSGDASLRLPGIQLEEAGEYRCEVVVTPYKAQGTVQLEVVASPAS"
measured_result = 14

[[record]]
binder = "ΔB7-H6_S3#29-SEED-PGLALA (bispecific antibody, part only; not given: SEED Fc chains and hu225 EGFR Fab, part only) chain, part: DLKVEMMAGGTQITPLNDNVTIFCNIFYSQPLNITVMGITWFWKSLTFDKEVKVFEFWGDHQEAFRPGAIVSPWRLKSGDASLRLPGIQLEEAGEYRCEVIVTPYKAQGTVQLEVVASPAS"
measured_result = 114

[[record]]
binder = "ΔB7-H6_S3#14-SEED-PGLALA (bispecific antibody, part only; not given: SEED Fc chains and hu225 Fab, part only) chain, part: DLKVEMMAGGTQITPLNDNVTIFCNIFYSQPLNITTMGITWFWKSLTFDKEVKVFEFYGDHQEAFRPGAIVSPWRLKSGDASLRLPGIQLEEAGEYRCEVVVTPYKAQGTVQLEVVASPAS"
measured_result = 41

[[record]]
binder = "ΔB7-H6_S3#23-SEED-PGLALA (bispecific antibody, part only; not given: SEED Fc chains and hu225 Fab, part only) chain, part: DLKVEMMAGGTQITPLNDNVTIFCNIFYSQPLNITEMGITWFWKSLTFDKEVKVFEFYGDHQEAFRPGAIVSPWRLKSGDASLRLPGIQLEEAGEYRCEVVVTPYKAQGTVQLEVVASPAS"
measured_result = 11

[[record]]
binder = "ΔB7-H6_S2#1-SEED-PGLALA (bispecific antibody, part only; not given: SEED Fc chains and hu225 EGFR Fab, part only) chain, part: DLKVEMMAGGTQITPLNDNVTIFCNIFYSQPLNITSMGITWFWKSLTFDKEVKVFEFYGDHQEAFRPGAIVSPWRLKSGDASLRLPGIQLEEAGEYRCEVVVTPYKAQGTVQLEVVASPAS"
measured_result = 6


Could you please provide reported EC50 improvement compared to ΔB7-H6 wt for ΔB7-H6_S3#28-SEED-PGLALA (bispecific antibody, part only; not given: SEED Fc chains and hu225 EGFR Fab, part only) chain, part: DLKVEMMAGGTQITPLNDNVTIFCNIFYSQPLNITHMGITWFWKSLTFDKEVKVFEFWGDHQEAFRPGAIVSPWRLKSGDASLRLPGIQLEEAGEYRCEVVVTPLKAQGTVQLEVVASPAS ? Thanks! 8

Provide EC50 improvement compared to ΔB7-H6 wt value for the following binder: ΔB7-H6_S2#10-SEED-PGLALA (bispecific antibody, part only; not given: SEED Fc chains and hu225 EGFR Fab, part only) chain, part: DLKVEMMAGGTQITPLNDNVTIFCNIFYSQPLNITLMGITWFWKSLTFDKEVKVFEFWGDHQEAFRPGAIVSPWGLKSGDASLRLPGIQLEEAGEYRCEVVVTPLKAQGTVQLEVVASPAS 7

Tell us which EC50 improvement compared to ΔB7-H6 wt value is on record for ΔB7-H6_S2#13-SEED-PGLALA (bispecific antibody, part only; not given: SEED Fc chains and hu225 Fab, part only) chain, part: DLKVEMMAGGTQITPLNDNVTIFCNIFYSQPLNITSMGITWFWKSLTFDKEVKVFEFWGDHQEAFRPGAIVSPWRLKSGDASLRLPGIQLEEAGEYRCEVVVTPYKAQGTVQLEVVASPAS 5

Tell me measured EC50 improvement compared to ΔB7-H6 wt for ΔB7-H6_S3#8-SEED-PGLALA (bispecific antibody, part only; not given: SEED Fc chains and hu225 EGFR Fab, part only) chain, part: DLKVEMMAGGTQITPLNDNVTIFCNIFYSQPLNITHMGITWFWKSLTFDKEVKVFEFWGDHQEAFRPGAIVSPWRLKSGDASLRLPGIQLEEAGEYRCEVIVTPLKAQGTVQLEVVASPAS please. 20

Read the entry ΔB7-H6_S3#15-SEED-PGLALA (bispecific antibody, part only; not given: SEED Fc chains and hu225 Fab, part only) chain, part: DLKVEMMAGGTQITPLNDNVTIFCNIFYSQPLNITIMGITWFWKSLTFDKEVKVFEFWGDHQEAFRPGAIVSPWRLKSGDASLRLPGIQLEEAGEYRCEVVVTPYKAQGTVQLEVVASPAS and write its reported EC50 improvement compared to ΔB7-H6 wt. 100
